Reported MFI values follow for various binders
# TEST SYSTEM: T1, human ROR1 (Receptor Tyrosine Kinase-Like Orphan Receptor 1) on the cell surface (human, UniProt Q01973 30-937)
# T1 construct: whole, on cells; engineered into B16-F10 (high density) and LS174T (low density) cells; also called B16-F10-ROR1-H; LS174T-ROR1-L
# T1 sequence (Q01973 30-937): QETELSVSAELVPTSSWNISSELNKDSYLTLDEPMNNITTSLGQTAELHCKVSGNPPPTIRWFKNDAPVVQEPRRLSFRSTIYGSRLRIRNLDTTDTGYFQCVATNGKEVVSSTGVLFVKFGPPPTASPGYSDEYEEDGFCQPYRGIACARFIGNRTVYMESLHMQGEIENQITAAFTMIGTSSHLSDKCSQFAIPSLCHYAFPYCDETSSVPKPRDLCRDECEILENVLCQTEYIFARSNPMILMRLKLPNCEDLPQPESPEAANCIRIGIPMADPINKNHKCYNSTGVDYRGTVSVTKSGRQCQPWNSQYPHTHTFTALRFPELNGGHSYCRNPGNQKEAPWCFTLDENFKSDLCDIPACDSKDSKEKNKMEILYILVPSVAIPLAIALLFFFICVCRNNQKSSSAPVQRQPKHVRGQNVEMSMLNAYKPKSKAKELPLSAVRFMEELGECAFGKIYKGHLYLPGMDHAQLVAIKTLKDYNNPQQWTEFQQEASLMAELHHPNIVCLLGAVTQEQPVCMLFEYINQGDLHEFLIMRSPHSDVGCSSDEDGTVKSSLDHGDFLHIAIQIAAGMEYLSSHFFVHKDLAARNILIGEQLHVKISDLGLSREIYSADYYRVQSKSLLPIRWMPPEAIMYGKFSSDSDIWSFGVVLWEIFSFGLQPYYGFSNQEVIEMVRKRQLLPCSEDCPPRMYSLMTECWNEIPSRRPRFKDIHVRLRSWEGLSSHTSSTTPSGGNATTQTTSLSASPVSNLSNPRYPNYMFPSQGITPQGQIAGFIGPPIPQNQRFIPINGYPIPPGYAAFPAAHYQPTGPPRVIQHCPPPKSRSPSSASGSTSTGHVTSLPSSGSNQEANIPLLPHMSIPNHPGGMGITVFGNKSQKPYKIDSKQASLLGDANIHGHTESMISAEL
# METHOD NOTES: flow cytometry, B16-F10 cells expressing human ROR1 (high density)
QUANTITY: MFI

• FUSE-179 (5A1 VHH-human-Fc fusion protein) (Fc fusion, VHH-human-Fc fusion; non-humanized 5A1; not shown: human Fc) QVQLQESGGGSVQAGGSLKLSCTASGYTNRLKCMGWFRQAPGKEREEIATISTGTGNTYYADSVKGRFTFSQDKVKNTVYLQMNTLKPDDTGMYYCAADVRPDGTTCHYNSGGQGTQVTVSS = 4480
• FUSE-591 (h5A1-FA9-HK3_Fc) (Fc fusion, VHH-Fc format; not shown: Fc of the VHH-Fc format) EVQLLESGGGLVPRGGSLRLSCAASGYTNRLKCMGWFRQAPGKEREEIATISTGTGNTYYADSVKGRFTISQDKSRNTLYLQMNSLKAEDTAVYYCAADVRPKGTTCHYNKRGQGTQVTVSS = 7770
• FUSE-112 (2A11 VHH-human-Fc fusion protein) (Fc fusion, VHH-human-Fc fusion; non-humanized 2A11; also called 2A11-Fc; not shown: human Fc) QVQLQESGGGSVPAGGSLRLSCAASGSTYSANCMGWFRQAPGKEREEVASMSIRSGRTYYSDSVKGRFTISQDGSKNTLYLQLNSLKAEDTALYYCAAAYGGSRCVYNYRGQGTQVTVSS = 7840
• FUSE-589 (h2A11-HK5 Fc) (Fc fusion, VHH-Fc format; not shown: Fc of the VHH-Fc format) EVQLLESGGGLVQPGGSLRLSCAASGSTYSANCMGWFRQAPGKERELASMSIRSGRTYYADSVKGRFTISQDGSKNTLYLQMNSLKAEDTAVYYCAAAYGGSRCVYNYRGQGTLVTVSS = 6950
• FUSE-592 (h5A1-FA9-HK4_Fc) (Fc fusion, VHH-Fc format; not shown: Fc of the VHH-Fc format) EVQLLESGGGLVPRGGSLRLSCAASGYTNRLKCMGWFRQAPGKEREEVASISTGTGNTYYADSVKGRFTISQDKSRNTLYLQLNSLRAEDTAVYYCAADVRPRGTTCHYNSRGQGTQVTVSS = 7540
• FUSE-595 (h5A1-FA9-HK7_Fc) (Fc fusion, VHH-Fc format; not shown: Fc of the VHH-Fc format) EVQLLESGGGLVQRGGSLRLSCTASGYTNRLKCMGWFRQAPGKEREEIATISTGTGNTYYADSVKGRFTISRDKSRNTLYLQMKSLKAEDTAVYYCAADVRPKGTTCHYNSRGQGTQVTVSS = 7180
• FUSE-596 (h5A1-FA9-HK8 Fc) (Fc fusion, VHH-Fc format; not shown: Fc of the VHH-Fc format) EVQLLESGGGLVPRGGSLRLSCTASGYTNRLKCMGWFRQAPGKEREEIASISTGTGNTYYSDSVKGRFTISRDKSRNTLYLKLKSLRAEDTAVYYCAADVRPDGTTCHYNSRGQGTQVTVSS = 6260
• FUSE-593 (h5A1-FA9-HK5_Fc) (Fc fusion, VHH-Fc format; not shown: Fc of the VHH-Fc format) EVQLLESGGGLVQRGGSLRLSCAASGYTNRLKCMGWFRQAPGKEREEIASISTGTGNTYYSDSVKGRFTISRDKSRNTLYLQLNSLKAEDTAVYYCAADVRPKGTTCHYNSRGQGTQVTVSS = 7520
